// provenance: patent US20090304692A1

Tested system: Human mTOR (FLAG-TOR) (Homo sapiens)
Sequence (P42345 1360-2549 limits assumed): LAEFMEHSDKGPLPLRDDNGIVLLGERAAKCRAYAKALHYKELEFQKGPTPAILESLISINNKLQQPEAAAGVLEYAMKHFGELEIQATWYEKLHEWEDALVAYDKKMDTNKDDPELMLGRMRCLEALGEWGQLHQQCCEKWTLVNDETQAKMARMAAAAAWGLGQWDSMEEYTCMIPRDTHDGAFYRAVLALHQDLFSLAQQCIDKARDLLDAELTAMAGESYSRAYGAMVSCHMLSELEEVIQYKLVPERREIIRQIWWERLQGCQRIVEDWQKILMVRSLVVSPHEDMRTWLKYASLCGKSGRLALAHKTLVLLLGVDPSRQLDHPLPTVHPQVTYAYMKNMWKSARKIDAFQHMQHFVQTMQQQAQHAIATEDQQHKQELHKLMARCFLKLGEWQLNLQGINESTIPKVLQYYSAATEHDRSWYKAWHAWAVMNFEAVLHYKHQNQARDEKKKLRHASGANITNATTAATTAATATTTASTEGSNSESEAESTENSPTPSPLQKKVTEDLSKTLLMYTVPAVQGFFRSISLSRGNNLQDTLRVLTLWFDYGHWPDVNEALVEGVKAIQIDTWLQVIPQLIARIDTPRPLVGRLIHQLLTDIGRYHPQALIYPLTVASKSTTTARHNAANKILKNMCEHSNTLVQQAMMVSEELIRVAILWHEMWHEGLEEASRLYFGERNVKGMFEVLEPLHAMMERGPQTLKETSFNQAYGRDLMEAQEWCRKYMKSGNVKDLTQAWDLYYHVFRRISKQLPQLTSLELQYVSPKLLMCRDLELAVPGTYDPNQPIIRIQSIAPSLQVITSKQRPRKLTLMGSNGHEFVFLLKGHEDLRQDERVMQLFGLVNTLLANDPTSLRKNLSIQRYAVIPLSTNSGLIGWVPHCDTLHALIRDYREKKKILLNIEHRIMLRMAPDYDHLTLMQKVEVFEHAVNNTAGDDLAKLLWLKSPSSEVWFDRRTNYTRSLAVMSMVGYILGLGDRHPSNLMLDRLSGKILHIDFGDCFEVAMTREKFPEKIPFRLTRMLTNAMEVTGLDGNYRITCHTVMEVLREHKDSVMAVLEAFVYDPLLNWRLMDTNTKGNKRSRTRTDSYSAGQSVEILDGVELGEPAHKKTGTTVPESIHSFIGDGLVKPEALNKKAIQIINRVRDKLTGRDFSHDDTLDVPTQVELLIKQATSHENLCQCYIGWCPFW
Method: mTOR kinase assay (DELFIA format, purified enzyme)
Assay type: biochemical
Experimental parameters: read-out: IC50 mTOR
Result type: pIC50
Give bare numbers, as −log10 of the molar value.

chemical_string=C[C@H]1COCCN1c1nc(-c2ccc(NC(=O)Nc3ccc(C(=O)N4CCN(C)CC4)cc3)cc2)nc(N2CCOCC2)n1 tested_system="Human mTOR (FLAG-TOR) (Homo sapiens)" result_type=pIC50 observed_value=9.00
chemical_string=COc1ccc(NC(=O)Nc2ccc(-c3nc(N4CCOCC4)nc(N4CCOCC4)n3)cc2)cc1 tested_system="Human mTOR (FLAG-TOR) (Homo sapiens)" result_type=pIC50 observed_value=8.40
chemical_string=C[C@H]1COCCN1c1nc(-c2ccc(NC(=O)Nc3ccc(C(=O)N4CCC(N(C)C)CC4)cc3)cc2)nc(N2CCOC[C@@H]2C)n1 tested_system="Human mTOR (FLAG-TOR) (Homo sapiens)" result_type=pIC50 observed_value=9.00
chemical_string=CCCCN1CCN(C(=O)c2ccc(NC(=O)Nc3ccc(-c4nc(N5CCOC[C@@H]5C)nc(N5CCOC[C@@H]5C)n4)cc3)cc2)CC1 tested_system="Human mTOR (FLAG-TOR) (Homo sapiens)" result_type=pIC50 observed_value=8.40

Would you kindly look at the next entry?
pIC50 measured on `CN(C)CCN(C)C(=O)c1ccc(NC(=O)Nc2ccc(-c3nc(-c4cccs4)nc(N4CCOCC4)n3)cc2)cc1` = 8.40
